molecular target: TcPRAC (Trypanosoma cruzi); construct: His tag (inferred from nickel IMAC purification); made in house; host or cells: E. coli BL21 (DE3); assay: TcPRAC inhibition by PYC derivatives (polarimetry and DAAO methodologies); format: biochemical; conditions: Ki, classical Michaelian approaches
Sequence (Q4DA80 32-423): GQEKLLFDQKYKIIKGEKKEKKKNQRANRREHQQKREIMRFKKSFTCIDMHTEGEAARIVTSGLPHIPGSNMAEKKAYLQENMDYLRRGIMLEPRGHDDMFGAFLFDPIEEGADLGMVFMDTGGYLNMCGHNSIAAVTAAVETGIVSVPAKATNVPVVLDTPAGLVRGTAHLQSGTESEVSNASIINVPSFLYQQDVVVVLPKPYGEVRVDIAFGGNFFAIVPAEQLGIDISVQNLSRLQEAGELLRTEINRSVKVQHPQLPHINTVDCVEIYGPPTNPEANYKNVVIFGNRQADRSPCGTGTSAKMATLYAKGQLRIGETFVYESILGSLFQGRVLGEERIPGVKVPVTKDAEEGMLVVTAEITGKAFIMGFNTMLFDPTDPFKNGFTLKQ
Below: a set of entries, each annotated with reported Ki.

// below: answered compounds
# compound, endpoint-value
records = [
    ("Cc1[nH]nc(C(=O)O)c1Cl", "> 2000 µM"),
    ("O=C(O)c1n[nH]cc1Br", "1000 µM"),
    ("O=C(O)c1cc[nH]n1", "> 2000 µM"),
]

Please look up its Ki: O=C(O)c1n[nH]cc1Cl
300 µM

Please look up its Ki: CCc1c[nH]nc1C(=O)O
> 2000 µM

Please look up its Ki: O=C(O)c1ccc[nH]1 [PYC, 2-pyrrolecarboxylic acid, reference compound]
6 to 10 µM

###

biological target: TcPRAC (Trypanosoma cruzi); construct: His tag (inferred from nickel IMAC purification); made in house; host or cells: E. coli BL21 (DE3); test: TcPRAC inhibition by PYC derivatives (polarimetry and DAAO methodologies); format: biochemical; conditions: Ki, values in text
Below: a set of entries, each annotated with reported Ki.

# molecule, endpoint-value
data = [
    ("O=C(O)c1n[nH]cc1Cl [Cl-PZC, 4-chloro-1H-pyrazole-3-carboxylic acid]", "~300 µM"),
]

Pending molecule:
Please look up its Ki: O=C(O)c1n[nH]cc1Br [Br-PZC, 4-bromo-1H-pyrazole-3-carboxylic acid]
~1000 µM

###

Observed IC50 for TcPRAC (Trypanosoma cruzi), reported per entry below.
All answers are understood in µM, so give the number only.

// below: answered compounds
# compound, IC50 (µM)
records = [
    ("O=C(O)c1ccc[nH]1 [PYC, 2-pyrrolecarboxylic acid, reference compound]", 10),
    ("O=C(O)/C=C/C(=O)CBr [Br-OxoPA, (E)-5-bromo-4-oxopent-2-enoic acid]", 2.5),
]

Pending compound:
Please look up its IC50: CC(=O)/C=C/C(=O)O [OxoPA, (E)-4-oxopent-2-enoic acid]
3

###

assay: Solubility (qualitative); format: physicochemical; conditions: solvent in which the compound is soluble, qualitative
quantity-name: Solubility

// below: answered compounds
# compound, quantity-name, endpoint-value
data = [
    ("O=C(O)c1cc[nH]n1", "Solubility", "Water"),
    ("Cc1[nH]nc(C(=O)O)c1Cl", "Solubility", "Ethanol"),
    ("O=C(O)c1ccc[nH]1 [PYC, 2-pyrrolecarboxylic acid, reference compound]", "Solubility", "Ethanol"),
    ("O=C(O)c1n[nH]cc1Br", "Solubility", "Water"),
    ("CCc1c[nH]nc1C(=O)O", "Solubility", "Water"),
]

Please look up its Solubility: O=C(O)c1n[nH]cc1Cl
Water

All values here come from paper PMC3628851.
